experiment: qHTS of TDP-43 Inhibitors; settings: TDP-43 expressing yeast growth rescue, BacTiter-Glo, 24 h; series mostly up to 46.1 µM; also: nearly all actives have a fitted effect of over 50% in size
About 7,200 (1.8%) of roughly 410,000 compounds were called active. Roughly 7% stayed inconclusive and do not appear here. Calls follow the shape of the dose curve; as a rule, active = well fitted activation curve with a large enough effect; inconclusive = small, poorly fitted or top-dose-only effect, or another doubt; inactive = no such curve, though single readings can be large or run the other way. Only a selection was taken, and actives are over-represented in it overall.
Outcomes: 1.0 (active), 0.0 (inactive)

{"columns": ["molecule", "cat"],
 "data": [
  ["COc1ccc(C)cc1S(=O)(=O)Nc1cccc(Cl)c1Cl", 0.0],
  ["COc1ccc(-n2c(SC)nc3sc4c(c3c2=O)CCN(C(C)=O)C4)cc1", 0.0],
  ["COc1ccc2oc(C(=O)NCC(Cc3ccccc3)N(C)C)c(C)c2c1 (stereo unspecified)", 0.0],
  ["Cc1cccc(Cn2c(SCc3ccc(C(=O)N4CCC(C)CC4)cc3)nc3ccncc32)c1", 0.0],
  ["COc1ccccc1C1C(C(=O)N2CCCCC2)=C(C)Nc2nc3ccccc3n21 (stereo unspecified)", 0.0],
  ["COc1ccc(CN2CCc3nc(Nc4ccccc4)ncc3C2)c(OC)c1OC", 0.0],
  ["CCOc1ccc(S(=O)(=O)N2CCN(C(=S)NCC3CCCO3)CC2)cc1 (stereo unspecified)", 0.0],
  ["N#C/C(=C\\c1ccccc1F)c1nc2ccccc2c(=O)[nH]1", 0.0],
  ["CCc1ccc(Nc2n[n+](-c3ccccc3)c(-c3cccc(Cl)c3Cl)s2)cc1", 1.0],
  ["COc1ccc(C)cc1Nc1n[n+](-c2ccccc2)c(-c2cccc(Cl)c2Cl)s1", 1.0],
  ["CC(C)(C)OC(=O)N1CCC(c2c(C(=O)N3CCc4ccccc4C3)cnn2-c2ccc(F)cc2)CC1", 0.0],
  ["COc1ccc(S(=O)(=O)c2c(Nc3ccc(C)cc3)sc(C(=O)c3ccc(C)cc3)c2N)cc1", 0.0],
  ["COc1ccc2oc(C(=O)NCc3ccco3)c(C)c2c1", 1.0],
  ["CCCc1c(C(=O)O)cnn1-c1ccc(Cl)cc1", 1.0],
  ["S=C(NCC1CCCO1)N1CCN(c2ccc(Cl)c(Cl)c2)CC1 (stereo unspecified)", 1.0],
  ["COc1ccc(S(=O)(=O)N2CCN(C(=S)NCC3CCCO3)CC2)cc1OC (stereo unspecified)", 0.0],
  ["COc1ccc(CNC(=O)c2cc3c(=O)[nH]c4ccccc4c3s2)cc1", 0.0],
  ["COc1cc(Nc2nc(-c3ccc(OC)c(OC)c3)nc3ccccc23)cc(OC)c1", 0.0],
  ["CCOC(=O)c1c(C)oc2ccc(N(C(=O)c3ccncc3)S(=O)(=O)c3ccc(CC)cc3)cc12", 0.0],
  ["O=C1[C@@H]2C(c3cccnc3)=NO[C@@H]2C(=O)N1c1ccc(Cl)cc1Cl", 1.0],
  ["O=C(NNC1CC(=O)N(c2cccc(Cl)c2)C1=O)c1cccnc1 (stereo unspecified)", 0.0]
]}
